Record form. Attribute: Percent Effect. Fill in for each entry.
Tgt: Arginase-2, mitochondrial (Homo sapiens) (UniProt P78540)
Sequence (whole entry): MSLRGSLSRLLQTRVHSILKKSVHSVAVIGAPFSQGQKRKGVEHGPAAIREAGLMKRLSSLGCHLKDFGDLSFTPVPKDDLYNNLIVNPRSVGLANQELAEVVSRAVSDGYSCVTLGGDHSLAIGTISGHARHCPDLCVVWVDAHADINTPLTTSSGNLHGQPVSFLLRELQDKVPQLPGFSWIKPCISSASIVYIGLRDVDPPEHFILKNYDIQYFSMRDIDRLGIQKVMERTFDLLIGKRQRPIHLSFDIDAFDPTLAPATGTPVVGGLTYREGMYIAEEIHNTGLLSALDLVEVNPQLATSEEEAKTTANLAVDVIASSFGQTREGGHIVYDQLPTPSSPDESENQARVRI
Assay details: in vitro enzyme assay to detect the production of urea directly proportional to the activity of Arginase II; note: in the data most compounds retested in dose-response had high values
Type: functional
Parameters: scale not given: direction of the effect not stated beside the values
Condition label: 33.3 µM
Provide the reading as a plain figure in %.

Q. Record lookup: for Arginase-2, mitochondrial (Homo sapiens) (UniProt P78540), what Percent Effect belongs to CCS(=O)(=O)N1CCO[C@H]2[C@H](OCC3CCCC3)CC[C@@H]21 ?
A. -50.7

Q. Same thing, different compound: COc1ccccc1Oc1ncccc1CNC(=O)C(C)N1CCCC1 (centres undefined)
A. 50.3

Q. Same thing, different compound: CC(CN1CCOCC1)NCc1nncn1C1CCCCC1 (centres undefined)
A. 3.09

Q. Same thing, different compound: COc1cc(/C=C/c2ncc(C(=O)O)s2)cc(Cl)c1O
A. 4.95

Q. Same thing, different compound: Cc1cccc(C2(C(=O)NCCCn3cccn3)CC2)c1
A. 17.3

Q. Same thing, different compound: COCCN1C(=O)[C@]2(CC[C@@H]3CN(C(=O)NCC(C)C)C[C@@H]32)N=C1C
A. -49.3

Q. Same thing, different compound: O=C(Cn1cccnc1=O)NC(Cc1cccs1)c1ccccn1 (centres undefined)
A. 5.8

Q. Same thing, different compound: OC(CN1CCN(Cc2nnc(C3CC3)o2)CC1)c1ccccc1 (centres undefined)
A. 1.9

Q. Same thing, different compound: CC(C(=O)N1CCN(c2cnccn2)CC1)n1cncn1 (centres undefined)
A. 7.53

Q. Same thing, different compound: CCCNC(=O)NC(=O)CN(CC(C)O)c1ccccc1 (centres undefined)
A. -0.632

Q. Same thing, different compound: O=C(NCC1CCS(=O)(=O)C1)c1sccc1-c1ccc(F)cc1 (centres undefined)
A. 4.71

Q. Same thing, different compound: Cc1ccc(-c2nnc(CN3CCc4cnc(C)nc4C3)o2)cc1
A. -13.9

Q. Same thing, different compound: CN1N=C(C(=O)NCc2ccc3c(c2)CCCN3C)CCC1=O
A. 0.215

Q. Same thing, different compound: CN(Cc1cn2c(n1)CN(CC1CC1)CC2)Cc1ccco1
A. 0.233

Q. Same thing, different compound: CC(NC(=O)CSCC#N)c1cccc(NC(=O)c2ccccc2)c1 (centres undefined)
A. 1.08

Q. Same thing, different compound: Cc1nc(C)n(C2CCCN(C(=O)COCc3ccccc3)C2)n1 (centres undefined)
A. 1.78

Q. Same thing, different compound: O=C(c1cccnc1)N1CC[C@H](OCC2CC2)[C@@H]1Cc1cccnc1
A. -43.2

Q. Same thing, different compound: COc1ccc(C2CCCN2S(=O)(=O)N(C)CC(C)C)cc1 (centres undefined)
A. -3.97

Q. Same thing, different compound: CC1c2ncc(Cn3cncn3)n2CCN1C1CCOCC1 (centres undefined)
A. -54.3

Q. Same thing, different compound: CCN1CCn2c(C)cnc2C12CCN(C(=O)CC(C)C)CC2
A. -59

Q. Same thing, different compound: O=C(Nc1cccc(OCc2ccc(F)cc2)c1)C1COCCO1 (centres undefined)
A. 1.04

Q. Same thing, different compound: Cc1cnccc1N1CCCN(C(=O)CCCc2cn[nH]c2)CC1
A. -1.36

Q. Same thing, different compound: Cc1ccc(CNC(=O)N(Cc2ccccc2F)C2CC2)cn1
A. -2.6

Q. Same thing, different compound: CCc1ncc2c(n1)CN(C(=O)COC)C2
A. 1.36

----------
Tgt: Ubiquitin-activating enzyme e1, putative (Leishmania donovani (strain BPK282A1))
Assay details: Leishmania donovani Ubiquitin Activating Enzyme (LdE1)
Type: functional
Set-up: scale not given: direction of the effect not stated beside the values
Condition label: 30 µM
Measured potencies and affinities stand elsewhere.
Measurement type: Percent Effect (%)
Provide the reading as a plain figure in %.

Q. GET /values?readout=Percent Effect&item= Cc1cnn(CCNCc2ccccc2C#N)c1
A. 5.41

Q. Same thing, different compound: O=S(=O)(Cc1ccccc1)N1CCCn2cnc(CN3CCCC3)c2C1
A. 8

Q. Same thing, different compound: COCCN1C(=O)[C@]2(CC[C@@H]3CN(C(=O)NC4CCCC4)C[C@@H]32)N=C1C
A. 8

Q. Same thing, different compound: Cc1nn(C)c(C)c1CC(=O)N1CCC(Nc2cccnn2)CC1
A. -13.2

Q. Same thing, different compound: Cc1cc(C(=O)N2C[C@@H]3[C@@H](C2)OCC(=O)N3CC2CC2)no1
A. -31.2

Q. Same thing, different compound: CN(C)CC1CN(CCOc2cccc(C#N)c2)CCO1 (configuration not stated)
A. -5.26

Q. Same thing, different compound: Cn1ccnc1CN1CCN(CC(O)c2ccc(F)c(F)c2)CC1 (configuration not stated)
A. 10.4

Q. Same thing, different compound: Cc1ccc(CNC(=O)NCc2csc(C)n2)cn1
A. 17.7

Q. Same thing, different compound: CN(C)C(=O)N1C[C@H](Oc2ccccn2)[C@H]2OCCC[C@H]21
A. 0

Q. Same thing, different compound: Cc1cnn(Cc2cc(F)ccc2F)c1NC(=O)NC1CC1
A. 16

Q. Same thing, different compound: CCN1CCC(CNCc2cc(OC)ccc2OC)C1 (configuration not stated)
A. 0

Q. Same thing, different compound: O=C1CC(NCc2ccncc2)CN1Cc1cccc(F)c1 (configuration not stated)
A. -2.7

Q. Same thing, different compound: Cn1c(Nc2cn[nH]c2)c(C#N)c(=O)n(C)c1=O
A. 5.41

Q. Same thing, different compound: CCS(=O)(=O)N1CCC(c2cc3n(n2)[C@@H](C(F)(F)F)C[C@@H](C)N3)CC1
A. 9.46

Q. Same thing, different compound: COc1ccc(C)cc1NC(=O)Nc1cnc(N2CCN(C)CC2)nc1
A. 7.79

Q. Same thing, different compound: CN1CCN(Cc2ccccc2CNC(=O)c2ccc(Br)cc2)CC1
A. 8.11

Q. Same thing, different compound: COC(=O)c1cccn1C1CCN(C(=O)c2cn[nH]c2C)CC1
A. 10.4

Q. Same thing, different compound: Cc1ccc(Nc2nccc(C3CN(CC(N)=O)C3)n2)nc1
A. 20.3

Q. Same thing, different compound: Cc1cnc(CNc2c(F)cccc2-n2cccn2)o1
A. 12.5

Q. Same thing, different compound: Cc1noc(CN2Cc3ccccc3CC2c2nnc(C)o2)n1 (configuration not stated)
A. 5.2

Q. Same thing, different compound: Cc1occc1C(=O)N1CCO[C@H]2[C@@H](Oc3ccccn3)CC[C@@H]21
A. 0

Q. Same thing, different compound: Cc1nn(C)c(C)c1C1CCCN1Cc1noc(C2CC2)n1 (configuration not stated)
A. 15.8

Q. Same thing, different compound: CCc1nc(CN(C)CC2CCN(CC(C)O)CC2)no1 (configuration not stated)
A. 0

Q. Same thing, different compound: CN(C)Cc1nnc(C2CCN(C(=O)CCc3cccs3)CC2)n1C
A. 13.5

Q. Same thing, different compound: CCn1c(C(=O)N2CCN(CC(C)O)CC2)cc2ccccc21 (configuration not stated)
A. 7.79

Q. Same thing, different compound: CC(C)NC(=O)N1CCc2ncc(CN3CCOCC3)n2CC1
A. 0

Q. Same thing, different compound: CCS(=O)(=O)NC[C@]12COC[C@H]1CN(Cc1cccc(OC)c1)C2
A. -2.7

Q. Same thing, different compound: CNC(=O)C(C)(C)NC(=O)c1cc(OCC2CCC2)cc(C(=O)OC)c1
A. 11

Q. Same thing, different compound: CC(=O)N1CCC2(CC1)CC(Oc1ccccc1)CO2 (configuration not stated)
A. 2.74

Q. Same thing, different compound: Cc1noc([C@@H]2C[C@H]3OCC[C@H]3N(S(C)(=O)=O)C2)n1
A. 11

Q. Same thing, different compound: O=C(CCNCC(F)(F)F)N1CCC(Nc2cccnn2)CC1
A. 28.9

Q. Same thing, different compound: Cc1noc(C2CCC3(CCN(C(=O)C4=CCCCC4)CC3)O2)n1 (configuration not stated)
A. 10.8

Q. Same thing, different compound: COc1ccc(C2(CNC(C)c3nnc(C)o3)CCCCC2)cc1 (configuration not stated)
A. -8.11

Q. Same thing, different compound: CC(=O)NCCN1CCC(c2cccs2)CC1
A. 5.48

Q. Same thing, different compound: O=C(NS(=O)(=O)c1ccc2c(c1)OCCO2)c1ccc(Br)cc1F
A. -13.9

Q. Same thing, different compound: COc1ccccc1CC(=O)N1CCC(NCc2c[nH]nc2C)CC1
A. 13.5

Q. Same thing, different compound: CC(=O)N1CCN(C(=O)NCc2csc(Br)c2)CC1
A. 2.7

Q. Same thing, different compound: c1ccc2oc(NC3CCCN(Cc4noc(C5CC5)n4)C3)nc2c1 (configuration not stated)
A. -5.41

Q. Same thing, different compound: CC1=NN(c2ccc(C(=O)N3CCCC(n4ccnc4)C3)cc2)CC1 (configuration not stated)
A. 10.1

Q. Same thing, different compound: Cc1cnn(C2CN(CC(=O)NCc3ccccn3)C2)c1
A. 26.3

Q. Same thing, different compound: COCCCN1CCCN(C(C)C(=O)Nc2ccnn2C(C)C)CC1 (configuration not stated)
A. -2.7

Q. Same thing, different compound: COCC1CN(Cc2ccc(C)o2)Cc2ncn(CC3CC3)c21 (configuration not stated)
A. 5.2

Q. Same thing, different compound: O=C(Cn1cc(C(=O)O)ccc1=O)NCc1ccc(F)c(Cl)c1
A. 9.33

Q. Same thing, different compound: Cc1nn(C)c(N2CCOCC2)c1CNCc1ccc(Cl)s1
A. 10.4

Q. Same thing, different compound: O=C(C1CCCC1)N1CCN(Cc2nc(-c3ccco3)no2)CC1
A. 13.5

Q. Same thing, different compound: CN(Cc1cccs1)C(=O)CS(=O)(=O)Cc1ccc(Cl)c(Cl)c1
A. 2.6

Q. Same thing, different compound: CC(CNC(=O)c1ccccc1Oc1cccnc1)N(C)C (configuration not stated)
A. 10.8
